Each entry below lists one item and its recorded TGI value.
Tested on: SN12C renal
Measurement description: NCI tumour cell line growth inhibition, 48 h
Measure: TGI (µM)

Cc1cnc(C(=O)Nc2nc3ccc(S(=O)(=O)Nc4ccc(C5(C(F)(F)F)CC5)cc4)cc3[nH]2)cn1 :: 5.87
CC1=C(C(=O)Nc2ccccc2)C2(CCCCC2)C(C#N)=C(SCC(=O)Nc2ccc(Br)cc2)N1 :: 16.6

###

System: MALME-3M melanoma
Measurement description: NCI tumour cell line growth inhibition, 48 h
Measure: GI50

O=C1C[C@@H]2/C(=C(O)\C=C\c3ccccc3)C(=O)C=C[C@@H]2O1 :: 1.42 µM
O=C1C(Cl)=C(NCc2ccco2)C(=O)c2ccccc21 :: 2.03 µM
C=C1C(=O)O[C@H]2[C@H]1CC/C(Cn1cc(-c3ccccc3C(F)(F)F)nn1)=C\CC[C@@]1(C)O[C@@H]21 :: 1.7 µM

###

Tested on: T-47D breast
Measurement description: NCI tumour cell line growth inhibition, 48 h
Measure: GI50

N#C/C(=C\c1ccc(Br)cc1)n1nnc2ccc(F)cc21 :: 0.447 µM
NCCCNCCCCNC(=O)C(O)NC(=O)CCCCCCN=C(N)N (stereo not given) :: 2130 µM
OCC#Cc1ccccc1C#CCCCCCC#Cc1ccccc1C#CCO :: 16.9 µM
Cc1ccc(Cl)cc1NC(=O)c1sc2nc3c(cc2c1N)C(=O)CCC3 :: > 100 µM
Cc1cc(N2CCOCC2)cc2[nH]c(-c3c(NC[C@@H](O)c4cccc(Cl)c4)cc[nH]c3=O)nc12 :: 4.17 µM

###

System: NCI/ADR-RES ovarian
Measurement description: NCI tumour cell line growth inhibition, 48 h
Below, each of the compounds is paired with its reported TGI value.
Measure: TGI

CC(=O)OCc1ccc2oc(=O)c(C(=O)Oc3ccccc3)cc2c1 :: > 100 µM
C/C(=N\NC(=S)NCCCNC(=S)N/N=C(\C)c1ccccn1)c1ccccn1 :: 8.19 µM
N#C/C(N)=C(\C#N)NC(=O)C(=O)N/C(C#N)=C(\N)C#N :: > 100 µM
O=C1c2ccccc2-c2c1c1ccccc1c(=O)n2CCCn1ccnc1 :: 6.09 µM
O=C1C[C@@H]2/C(=C(O)\C=C\c3ccccc3)C(=O)C=C[C@@H]2O1 :: 3.4 µM

###

Quick list: TGI per entry.
System: TK-10 renal
Measurement description: NCI tumour cell line growth inhibition, 48 h
Measure: TGI

COc1ccc2c(c1)CCc1c-2n(CCN2CCCCC2)c2ccc(OC)cc12 :: > 100 µM
CCOC(=O)c1ccc(N=c2sc3ccccc3nc2Nc2ccc(C(=O)OCC)cc2)cc1 :: > 100 µM
CN(C)c1ccc(/C=c2\sc3nc4ccccc4n3c2=O)cc1 :: > 100 µM
CCCC(=O)Nc1cc(/C=C/C(=O)N2CC(CCl)c3c2cc(O)c2[nH]cc(C)c32)n(C)c1 (stereo not given) :: < 2.5e-05 µM
C(=C\c1ccco1)/c1cccc(/C=C/c2ccco2)n1 :: > 50 µM
O=C(c1ccccc1)c1cn(/N=C\c2ccccc2)c(=O)nc1-c1ccccc1 :: > 100 µM
O=C(NNC(=S)NC1CCCCC1)c1csc(NC(=S)NC2CCCCC2)n1 :: > 100 µM
CCCSS[C@H]1NC(=O)[C@H]1NC(=O)COc1ccccc1 :: 63.9 µM
O=Cc1c(O)c(C(=O)Nc2ccc3[nH]c(=O)[nH]c3c2)cc2ccccc12 :: > 100 µM
Cc1cc2c([nH]c3ccccc32)c2c1OC(C)(C)C1C3CC(C)(C)Oc4c(C)cc5c6ccccc6n(c5c43)C21 (stereo not given) :: > 100 µM

###

System: DU-145 prostate
Measurement description: NCI tumour cell line growth inhibition, 48 h
Measure: TGI

COc1ccc(SCc2cc(OCc3ccccc3)c(OCc3ccccc3)c(OCc3ccccc3)c2)cc1 :: 3.13 µM
CCOC(=O)c1ccc(NCC#CCN2CCCCC2)cc1 :: > 100 µM
CCCCn1c2c(n(CCCC)c1=S)-c1c(n(CCCC)c(=S)n1CCCC)SSc1c(n(CCCC)c(=S)n1CCCC)-c1c(n(CCCC)c(=S)n1CCCC)SSc1c(n(CCCC)c(=S)n1CCCC)-c1c(n(CCCC)c(=S)n1CCCC)SS2 :: > 50 µM

###

Form field: TGI (one value per entry).
Test system: OVCAR-8 ovarian
Measurement description: NCI tumour cell line growth inhibition, 48 h
*1 amine or outer side, *2 acyl side, *3 side chain or, on linkers, in order; H or OH if unused. Where a SMILES comes first, the peptide text is derived from it. [ ]: non-standard residue; d: D form. X32 = C[C@H](N[*:1])C(=O)C(C)(C)C(=O)[*:2]; Hmpa(2S,3S) = CC[C@H](C)[C@H](O)C(=O)O; NMeY = CN[C@@H](Cc1ccc(O)cc1)C(=O)O; NMeL = CN[C@@H](CC(C)C)C(=O)O; NMeV = CN[C@H](C(=O)O)C(C)C; βAla = NCCC(=O)O
Measure: TGI

CC(=O)c1cc2ccccc2oc1=O :: > 100 µM
CC(C)(C)OC(=O)N1C(c2cccnc2)=CC[C@H]2C3CC=C(c4cccnc4)[C@@]3(C)CC[C@@H]21 (stereo partly drawn) :: 25 µM
CC(C)CC(NC(=O)OC(C)(C)C)C(=O)Nc1ccc(Nc2nc(F)nc(-c3c4ccccc4cn3C)n2)cc1 (stereo not drawn) :: > 100 µM
CN1C(=O)C2C(C1=O)C1(O)c3ccccc3C2(N)c2ccccc21 (stereo not drawn) :: > 100 µM
CC[C@H](C)[C@@H]1OC(=O)CCNC(=O)[C@@H](C)NC(=O)C(C)(C)C(=O)[C@H](C)NC(=O)[C@H](Cc2ccc(OC)cc2)N(C)C(=O)[C@H](C(C)C)N(C)C(=O)CNC(=O)[C@H](CC(C)C)N(C)C(=O)CNC1=O (cyclo(G[NMeL]G[NMeV][NMeY](Me)[X32][dA][βAla][Hmpa(2S,3S)])) :: 23.7 µM
COc1ccc(-c2cc3[nH]nc(N)c3c(=O)o2)cc1 :: > 100 µM
O=C1C(Cl)=C(NCc2ccco2)C(=O)c2ccccc21 :: > 100 µM
CCCC(=O)Nc1cc(/C=C/C(=O)N2CC(CCl)c3c2cc(O)c2[nH]cc(C)c32)n(C)c1 (stereo not drawn) :: 0.000532 µM

###

Test system: EKVX NSCLC
Measurement description: NCI tumour cell line growth inhibition, 48 h
*1 amine or outer side, *2 acyl side, *3 side chain or, on linkers, in order; H or OH if unused. Where a SMILES comes first, the peptide text is derived from it. [ ]: non-standard residue; d: D form. X32 = C[C@H](N[*:1])C(=O)C(C)(C)C(=O)[*:2]; Hmpa(2S,3S) = CC[C@H](C)[C@H](O)C(=O)O; NMeY = CN[C@@H](Cc1ccc(O)cc1)C(=O)O; NMeL = CN[C@@H](CC(C)C)C(=O)O; NMeV = CN[C@H](C(=O)O)C(C)C; βAla = NCCC(=O)O
Measure: TGI

CC(C(O)c1ccccc1)C(O)(C(F)(F)F)C(F)(F)F (centres undefined) :: > 100 µM
O=c1c2cc(Cl)ccc2sc2cccc(Cl)c12 :: > 100 µM
Oc1ccc2oc3ncc(Br)c(-c4ccccc4)c3c2c1 :: > 100 µM
O=C1C(Cl)=C(Nc2ccc(S(=O)(=O)Nc3ccccn3)cc2)C(=O)c2ccccc21 :: 31.7 µM
O=C(O)CN1C(=O)C(Cc2ccc(O)cc2)N=C(c2cccc(O)c2)c2ccccc21 (centres undefined) :: > 100 µM
CC1(C)OCC=CCO1 :: > 100 µM
C=C(Br)CNC(=O)CCC(=O)NCC(=C)Br :: > 100 µM
CC[C@H](C)[C@@H]1OC(=O)CCNC(=O)[C@@H](C)NC(=O)C(C)(C)C(=O)[C@H](C)NC(=O)[C@H](Cc2ccc(OC)cc2)N(C)C(=O)[C@H](C(C)C)N(C)C(=O)CNC(=O)[C@H](CC(C)C)N(C)C(=O)CNC1=O (cyclo(G[NMeL]G[NMeV][NMeY](Me)[X32][dA][βAla][Hmpa(2S,3S)])) :: 22.7 µM
Cc1cc(S(=O)(=O)Nc2nc3ccccc3c(=O)n2N)c(S)cc1Cl :: > 100 µM

###

Test system: KM12 colon
Measurement description: NCI tumour cell line growth inhibition, 48 h
Measure: log10 of TGI (log10 of the value in µM)

C[C@@H]1CC[C@@H]2[C@@H](C1)O[C@@H]([C@H](C)OCc1ccccc1)SC2(C)C :: 1.56
O=C(/C=C/c1ccc(C(F)(F)F)cc1)c1ccc(Nc2nc(NCCO)nc(Nc3ccc(Cl)cc3)n2)cc1 :: 0.68
CC(C)(C)OC(=O)N1C(c2cccnc2)=CC[C@H]2C3CC=C(c4cccnc4)[C@@]3(C)CC[C@@H]21 (stereo partly drawn) :: 1.46
Oc1ccc2c(c1)-c1c(c3ccccc3n1CCN1CCOCC1)CC2 :: 1.71
COc1cc(-c2nc(SCCC(C)C)nc(Nc3ccc(S(N)(=O)=O)cc3)c2C#N)cc(OC)c1OC :: 0.75
CC(C)NC(=O)CN1CCN(c2c(O)c3c(c(O)c2Cl)C(=O)C=CC3=O)CC1 :: 1.26
COc1cc(C(O)(CC#N)c2cc3c(cc2Br)OCO3)cc(OC)c1OC (stereo not drawn) :: 1.99
CC(=O)O[C@H]1[C@H](OC(=O)CC(C)(O)CC(=O)O)C[C@]2(C)C3=C(CCC2C1(C)C)[C@]1(C)CC[C@H]([C@H]2CC[C@H](C(C)(C)O)OC2O)[C@@]1(C)[C@@H](O)C3 (stereo partly drawn) :: 1.59
CC1OC(n2cc(F)c(=O)[nH]c2=O)C=CC1=O (stereo not drawn) :: 1.50
N#CC1(C#N)C(C#N)(C#N)C12CCCCCC2 :: 1.29
CC12CCC(Br)C(C)(C)C1CC=C1C(=O)OCC1O2 (stereo not drawn) :: 1.51
O=C1C(Cl)=C(Nc2ccc(S(=O)(=O)Nc3ccccn3)cc2)C(=O)c2ccccc21 :: 1.51
N#Cc1c(N)nc(Sc2ccccc2N)c(C#N)c1-c1ccc(Cl)cc1 :: 1.56
C#CCOc1cccc(Nc2ncnc3cc(NC(=O)CCl)ccc23)c1 :: 1.23
CC(C)/C(Cl)=N\OC(=O)Nc1cccc(Cl)c1 :: 1.50
CCCSS[C@H]1NC(=O)[C@H]1NC(=O)COc1ccccc1 :: 1.50
CCN(CC)c1ccc(N=Nc2ccc(-c3nc4ccc[n+](C)c4o3)cc2)cc1 :: 1.39
O=C(NNC(=S)NC1CCCCC1)c1csc(NC(=S)NC2CCCCC2)n1 :: 1.94
CN(C)c1ccc(/C=C/c2cc[n+](C)c(/C=C/c3ccc(N(C)C)cc3)c2)cc1 :: 0.15
COc1ccc(SCc2cc(OCc3ccccc3)c(OCc3ccccc3)c(OCc3ccccc3)c2)cc1 :: 0.50
